Known melting point of a selection of compounds

See these solved cases before continuing.
compound="Cn1cc(S(=O)(=O)c2cccc(Cl)c2Cl)c2cc(N3CCNCC3)ccc21 [compound 409]" value_measured="198 to 203 °C"
compound="Cc1[nH]c2c(N3CCNCC3)cccc2c1S(=O)(=O)c1ccc(Cl)cc1 [compound 602]" value_measured="118 to 120 °C"
compound="Cc1[nH]c2c(N3CCNCC3)cccc2c1S(=O)(=O)c1ccc(F)cc1 [compound 603]" value_measured="232 to 236 °C"

We now examine a further compound.
Give the measured melting point for O=S(=O)(c1nc2ccccc2s1)c1c[nH]c2c(N3CCNCC3)cccc12 [compound 114]
295 °C
